Target: GCN2 kinase (Homo sapiens, UniProt Q9P2K8)
Assay: GCN2 enzyme inhibition assay (Transcreener ADP2 fluorescence polarization)
Format: biochemical
Conditions: compounds of Formula II; 280 μM ATP, 4 nM GCN2 kinase
pKi: −log10 of the molar value.
Measured pKi values are reported for all entries that follow.

{"compound": "CS(=O)(=O)NCC1CN(c2cc(-c3cnc4ccc(C(F)F)nn34)ncn2)CC2(CC2)O1 (centres unmarked) [II-375]", "target.entity": "GCN2 kinase (Homo sapiens, UniProt Q9P2K8)", "pKi": "> 8.00"}

Request: Look up pKi for this compound: FC(F)c1ccc2ncc(-c3cc(C4CCOCC4)ncn3)n2n1
Result: 6.00 to 8.00

Request: Look up pKi for this compound: O=C1CCN(c2cc(-c3cnc4ccc(C(F)F)nn34)ccn2)CCN1
Result: 6.00 to 8.00

Request: Look up pKi for this compound: C[C@@H]1CC(N=S(C)(C)=O)CN(c2cc(-c3cnc4ccc(C(F)F)nn34)ncn2)C1 (single isomer, unassigned)
Result: > 8.00

Request: Look up pKi for this compound: FC(F)c1ccc2ncc(-c3ccnc(N4CCCC(c5cn[nH]c5)C4)c3)n2n1 (centres unmarked)
Result: > 8.00

Request: Look up pKi for this compound: O=C1CCC2(CCN(c3cc(-c4cnc5ccc(C(F)F)nn45)ncn3)CC2)CN1
Result: 6.00 to 8.00

Request: Look up pKi for this compound: NS(=O)(=O)CCC1CN(c2cc(-c3cnc4ccc(C(F)F)nn34)ncn2)CCO1 (centres unmarked)
Result: 6.00 to 8.00

Request: Look up pKi for this compound: CC1CCC(NS(C)(=O)=O)CN1c1cc(-c2cnc3ccc(C(F)F)nn23)ncn1 (centres unmarked) [II-552]
Result: 6.00 to 8.00

###

Target: intracellular GCN2 (phosphorylation of the GCN2 substrate eIF2α) (Homo sapiens)
Sequence (Q9P2K8 whole entry): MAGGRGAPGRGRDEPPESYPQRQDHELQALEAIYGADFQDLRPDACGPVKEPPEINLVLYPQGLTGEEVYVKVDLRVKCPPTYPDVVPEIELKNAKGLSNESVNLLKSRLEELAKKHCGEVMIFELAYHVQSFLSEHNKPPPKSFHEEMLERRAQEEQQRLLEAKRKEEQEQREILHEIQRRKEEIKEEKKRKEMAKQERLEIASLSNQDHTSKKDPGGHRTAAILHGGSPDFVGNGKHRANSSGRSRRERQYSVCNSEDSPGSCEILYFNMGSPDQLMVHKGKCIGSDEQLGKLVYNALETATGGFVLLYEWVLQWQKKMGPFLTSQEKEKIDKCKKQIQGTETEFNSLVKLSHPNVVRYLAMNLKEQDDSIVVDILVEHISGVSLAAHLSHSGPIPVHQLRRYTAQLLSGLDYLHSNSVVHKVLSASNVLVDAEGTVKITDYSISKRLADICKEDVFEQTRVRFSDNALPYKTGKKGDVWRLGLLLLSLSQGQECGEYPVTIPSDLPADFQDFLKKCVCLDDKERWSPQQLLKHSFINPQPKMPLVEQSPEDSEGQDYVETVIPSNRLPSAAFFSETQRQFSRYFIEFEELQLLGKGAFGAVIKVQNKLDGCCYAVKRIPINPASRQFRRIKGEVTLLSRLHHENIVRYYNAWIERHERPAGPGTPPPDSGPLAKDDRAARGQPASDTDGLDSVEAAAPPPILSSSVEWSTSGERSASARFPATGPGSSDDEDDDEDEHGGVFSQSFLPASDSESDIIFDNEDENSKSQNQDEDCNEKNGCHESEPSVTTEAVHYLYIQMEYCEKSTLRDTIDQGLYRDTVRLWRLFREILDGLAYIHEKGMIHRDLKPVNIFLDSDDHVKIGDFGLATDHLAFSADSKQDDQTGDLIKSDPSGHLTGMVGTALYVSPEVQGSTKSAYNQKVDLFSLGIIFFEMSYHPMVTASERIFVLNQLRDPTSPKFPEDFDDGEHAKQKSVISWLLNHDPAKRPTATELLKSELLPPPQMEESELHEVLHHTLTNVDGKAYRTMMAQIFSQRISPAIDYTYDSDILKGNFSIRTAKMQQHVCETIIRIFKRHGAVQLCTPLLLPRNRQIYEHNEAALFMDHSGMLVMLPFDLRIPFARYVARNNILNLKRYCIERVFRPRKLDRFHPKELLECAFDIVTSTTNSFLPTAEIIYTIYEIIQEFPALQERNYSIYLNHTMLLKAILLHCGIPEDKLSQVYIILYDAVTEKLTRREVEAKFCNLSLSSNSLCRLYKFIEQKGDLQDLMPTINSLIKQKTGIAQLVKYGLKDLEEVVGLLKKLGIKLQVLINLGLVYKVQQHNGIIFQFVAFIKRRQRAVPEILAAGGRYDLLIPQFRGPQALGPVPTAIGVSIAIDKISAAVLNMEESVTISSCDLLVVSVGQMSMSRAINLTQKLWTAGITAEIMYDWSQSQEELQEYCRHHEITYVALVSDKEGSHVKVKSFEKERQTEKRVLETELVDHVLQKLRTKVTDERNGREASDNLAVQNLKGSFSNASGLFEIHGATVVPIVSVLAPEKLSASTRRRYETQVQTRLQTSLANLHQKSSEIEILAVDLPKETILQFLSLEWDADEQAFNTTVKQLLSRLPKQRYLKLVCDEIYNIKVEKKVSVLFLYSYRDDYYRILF
Assay: GCN2 cellular inhibition assay (AlphaScreen SureFire P-eIF2α Ser51, borrelidin-treated U2OS cells)
Format: cell-based
Conditions: compounds of Formula II; biomarker assay, phosphorylated eIF2α Ser51 in borrelidin-treated U2OS cells
pIC50: −log10 of the molar value.
Measured pIC50 values are reported for all entries that follow.

Check out these entries, answers already filled in.
{"compound": "CC(=O)N1CCC(c2cc(-c3cnc4ccc(C(F)F)nn34)ncn2)C1 (stereo not shown)", "pIC50": "< 5.30"}
{"compound": "CC1C(CNS(C)(=O)=O)CCCN1c1cc(-c2cnc3ccc(C(F)F)nn23)ncn1 (single isomer, unassigned) [II-265]", "pIC50": "< 5.30"}
{"compound": "CC1C(C(N)=O)NCCN1c1cc(-c2cnc3ccc(C(F)F)nn23)ncn1 (stereo not shown)", "pIC50": "5.30 to 6.30"}

Shift focus to the following entry.
Request: Look up pIC50 for this compound: OC1CCN(C2CCN(c3cc(-c4cnc5ccc(C(F)F)nn45)ncn3)C2)C1 (stereo not shown)
Result: < 5.30

###

Target: GCN2 kinase (Homo sapiens)
Test: GCN2 enzyme inhibition assay (Transcreener ADP2 fluorescence polarization)
Format: biochemical
Conditions: Enzyme activity for compounds of Formula IV; Ki(app), 280 μM ATP, 25° C.
pKi: −log10 of the molar value.
Measured pKi values are reported for all entries that follow.

Check out these entries, answers already filled in.
{"compound": "CS(=O)(=O)NC[C@@H]1CN(c2ccnc(-c3cnc4cnc(C(F)F)cn34)n2)CCO1 [IV-23]", "target.entity": "GCN2 kinase (Homo sapiens)", "pKi": "6.00 to 7.00"}
{"compound": "CC1CN(c2ccnc(-c3cnc4cnc(C#N)cn34)n2)C(C)C(c2cn[nH]c2)N1 (centres unmarked) [IV-305]", "target.entity": "GCN2 kinase (Homo sapiens)", "pKi": "> 8.00"}
{"compound": "C[C@H]1[C@H](c2cn[nH]c2)OCCN1c1ccnc(-c2cnc3cnc(C#N)cn23)n1 (racemic) [IV-281]", "target.entity": "GCN2 kinase (Homo sapiens)", "pKi": "7.00 to 8.00"}
{"compound": "Cc1[nH]ncc1C1CN(c2ccnc(-c3cnc4cnc(C(F)F)cn34)n2)CC(C)N1 (single isomer, unassigned) [IV-462]", "target.entity": "GCN2 kinase (Homo sapiens)", "pKi": "6.00 to 7.00"}
{"compound": "NC(=O)C1COCCN(c2ccnc(-c3cnc4cnc(C(F)F)cn34)n2)C1 (centres unmarked) [IV-117]", "target.entity": "GCN2 kinase (Homo sapiens)", "pKi": "6.00 to 7.00"}
{"compound": "CC1(C)CN(c2ccnc(-c3cnc4cnc(Cl)cn34)n2)CC(c2cn[nH]c2)N1 (centres unmarked) [IV-353]", "target.entity": "GCN2 kinase (Homo sapiens)", "pKi": "6.00 to 7.00"}
{"compound": "Clc1cn2c(-c3nccc(N4CCNC(c5c[nH]cn5)C4)n3)cnc2cn1 (centres unmarked) [IV-347]", "target.entity": "GCN2 kinase (Homo sapiens)", "pKi": "6.00 to 7.00"}
{"compound": "CC(=O)N1CCN(c2ccnc(-c3cnc4cnc(-c5ccccc5)cn34)n2)CC1 [IV-297]", "target.entity": "GCN2 kinase (Homo sapiens)", "pKi": "6.00 to 7.00"}

Request: Look up pKi for this compound: CC1C(c2cn[nH]c2)OCCN1c1ccnc(-c2cnc3cnc(Cl)cn23)n1 (single isomer, unassigned) [IV-316]
Result: 6.00 to 7.00

Request: Look up pKi for this compound: FC(F)(F)c1cn2c(-c3nccc(N4CCCC(c5cn[nH]n5)C4)n3)cnc2cn1 (centres unmarked) [IV-378]
Result: > 8.00
